Overview of reported pIC50 across a group of compounds:
Biological target: Aromatase (Homo sapiens, UniProt P11511)
Sequence (P11511 whole entry): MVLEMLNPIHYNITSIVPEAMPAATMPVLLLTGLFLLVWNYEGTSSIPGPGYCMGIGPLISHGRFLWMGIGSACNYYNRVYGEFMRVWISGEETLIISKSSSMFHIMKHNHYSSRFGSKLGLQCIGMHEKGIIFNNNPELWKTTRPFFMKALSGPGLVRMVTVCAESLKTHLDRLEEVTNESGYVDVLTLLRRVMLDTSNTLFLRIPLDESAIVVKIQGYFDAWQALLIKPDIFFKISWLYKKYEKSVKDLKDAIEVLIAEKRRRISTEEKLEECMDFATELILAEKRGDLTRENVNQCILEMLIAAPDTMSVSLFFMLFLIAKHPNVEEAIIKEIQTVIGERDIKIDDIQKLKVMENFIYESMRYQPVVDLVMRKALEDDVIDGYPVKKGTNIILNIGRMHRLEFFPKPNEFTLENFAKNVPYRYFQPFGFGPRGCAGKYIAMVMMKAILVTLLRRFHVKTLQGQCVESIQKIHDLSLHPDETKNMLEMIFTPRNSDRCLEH
Remember the convention: pIC50 equals -log10 of concentration in molar.

Consider the following illustrative entries.
QUERY: Consider the compound O=C(c1ccc(-c2ccccc2)cc1)c1ccccc1Cn1ccnc1 . State its measured pIC50.
RESULT: 6.59

QUERY: Consider the compound O=C(c1ccccc1)c1ccccc1Cn1ccnc1 . State its measured pIC50.
RESULT: 6.25

QUERY: Consider the compound O=C(c1ccccc1)c1cc([N+](=O)[O-])ccc1Cn1ccnc1 . State its measured pIC50.
RESULT: 7.59

Further cases:
QUERY: Consider the compound O=C(c1ccc(-c2ccccc2)cc1)c1cc([N+](=O)[O-])ccc1Cn1ccnc1 . State its measured pIC50.
RESULT: 7.75
